System: crabgrass (Digitaria sanguinalis)
Experiment: Test B pre/postemergence
Format: in vivo
Conditions: Digitaria sanguinalis, pre-emergence, Preemergence, 125 g ai/ha; scale 0 to 100 (0 no effect, 100 complete control); read-out: Plant response rating, Crabgrass
Entries whose pest or weed control at 125 g/ha is below 20% take condition met; entries at or above 20% take condition not met.

compound: COC(=O)c1nc(C(C)C)nc(N)c1Br
class assignment: condition met

compound: COC(=O)c1nc(C2CC2)nc(NO)c1Br
class assignment: condition not met

compound: Nc1nc(C2CC2)nc(C(=O)OCc2ccccc2)c1Cl
class assignment: condition not met

compound: COC(=O)c1nc(C2CC2)nc(N)c1Br
class assignment: condition not met

compound: Nc1nc(C2CC2)nc(C(=O)[O-])c1Cl.[Na+] [Compound 77, monosodium salt]
class assignment: condition not met

compound: COC(=O)c1nc(C2CC2)nc(N)c1I
class assignment: condition met

====

Test system: Surinam grass (Brachiaria decumbens)
Assay: Test C pre/postemergence
Format: in vivo
Settings: Preemergence, 31 g ai/ha; scale 0 to 100, 0 no effect, 100 complete control

molecule: CCOC(=O)Cc1nc(C2CC2)nc(N)c1Br [Compound 12]
target entity: Surinam grass (Brachiaria decumbens)
Plant response rating, Surinam Grass: 0

molecule: COC(=O)Cc1nc(C2CC2)nc(N)c1Br [Compound 13]
target entity: Surinam grass (Brachiaria decumbens)
Plant response rating, Surinam Grass: 0

molecule: CC(C)COC(=O)c1nc(C2CC2)nc(N)c1Br [Compound 17]
target entity: Surinam grass (Brachiaria decumbens)
Plant response rating, Surinam Grass: 0

molecule: CCOC(=O)C(Cl)c1nc(C2CC2)nc(N)c1Br (centres unmarked) [Compound 31]
target entity: Surinam grass (Brachiaria decumbens)
Plant response rating, Surinam Grass: 0

molecule: Nc1nc(-c2ccc(Cl)cc2)nc(C(=O)[O-])c1Cl.[Na+] [Compound 117]
target entity: Surinam grass (Brachiaria decumbens)
Plant response rating, Surinam Grass: 40

====

Tested on: morningglory (Ipomoea coccinea)
Experiment: Test C pre/postemergence
Format: in vivo
Conditions: Ipomoea, post-emergence, Postemergence, 125 g ai/ha; scale 0 to 100 (0 no effect, 100 complete control); read-out: Morningglory plant response rating
measure name: pest or weed control at 125 g/ha (%)

mol: COC(=O)c1nc(C2CC2)nc(N)c1Br
experimental value: 100
--
mol: CCOC(=O)c1nc(-c2ccc(Cl)cc2)nc(N)c1Cl
experimental value: 90
--
mol: Nc1nc(C2CC2)nc(C(=O)OCc2ccccc2)c1Cl
experimental value: 100
--
mol: CCOC(=O)c1nc(C2CC2)nc(N)c1F
experimental value: 95
--
mol: COC(=O)c1nc(C2CC2)nc(N)c1F
experimental value: 90
--
mol: COC(=O)c1nc(C2CC2)nc(N)c1Cl
experimental value: 100
--
mol: CCOC(=O)c1nc(C2CC2)nc(N)c1Br
experimental value: 100

====

Test system: velvetleaf (Abutilon theophrasti)
Assay: Test A pre/postemergence
Type: in vivo
Details: Abutilon theophrasti, post-emergence, 240 h, Postemergence, 500 g ai/ha; 0 to 100 scale (0 no effect, 100 complete control); read-out: Plant response rating, Velvetleaf
measure name: pest or weed control at 500 g/ha (%)

molecule: COC(=O)c1nc(C(C)C)nc(N)c1Cl
measure name: pest or weed control at 500 g/ha
experimental value: 65
--
molecule: Nc1nc(C2CC2)nc(C(=O)[O-])c1Cl.[Na+] [Compound 77, monosodium salt]
measure name: pest or weed control at 500 g/ha
experimental value: 100
--
molecule: COC(=O)c1nc(-c2ccc(Cl)cc2)nc(N)c1Cl
measure name: pest or weed control at 500 g/ha
experimental value: 85
--
molecule: COC(=O)c1nc(-c2ccc(Br)cc2)nc(N)c1Cl
measure name: pest or weed control at 500 g/ha
experimental value: 85
--
molecule: CCOC(=O)c1nc(C2CC2)nc(N)c1Br
measure name: pest or weed control at 500 g/ha
experimental value: 95
--
molecule: NC(=O)c1nc(C2CC2)nc(N)c1Cl
measure name: pest or weed control at 500 g/ha
experimental value: 60
